B1: 6× His human Eps15-MD (530–791) [human] / human β2-appendage (700–937) used for ITC [human] (parent complex)
chain 1: STSSSETANLNEHVEGQSNLESEPIHQESPARSSPELLPSGVTDENEVTTAVTEKVCSELDNNRHSKEEDPFNVDSSSLTGPVADTNLDFFQSDPFVGSDPFKDDPFGKIDPFGGDPFKGSDPFASDCFFRQSTDPFATSSTDPFSAANNSSITSVETLKHNDPFAPGGTVVAASDSATDPFASVFGNESFGGGFADFSTLSKVNNEDPFRSATSSSVSNVVITKNVFEETSVKSEDEPPALPPKIGTPTRPCPLPPGKRSI
chain 2: IGMAPGGYVAPKAVWLPAVKAKGLEISGTFTHRQGHIYMEMNFTNKALQHMTDFAIQFNKNSFGVIPSTPLAIHTPLMPNQSIDVSLPLNTLGPVMKMEPLNNLQVAVKNNIDVFYFSCLIPLNVLFVEDGKMERQVFLATWKDIPNENELQFQIKECHLNADTVSSKLQNNNVYTIAKRNVEGQDMLYQSLKLTNGIWILAELRIQPGNPNYTLSLKCRAPEVSQYIYQVYDSILKN

Variants of: B1
protocol: ITC; stoichiometry (1.9)
metric: Kd (µM)
The reply should be a number in µM, with the unit left off.

*Q* // query Kd value for entry chain 2 Y189V
*A* 11
